B1: library; a variant is named by its letters at N, in order (parent)
chain: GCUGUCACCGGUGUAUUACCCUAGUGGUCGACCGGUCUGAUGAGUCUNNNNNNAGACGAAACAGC

Variants of: B1
Assay: FACS-Seq fitted mean relative fluorescence mCherry/BFP without ligand (log10 relative fluorescence); ligand: hypoxanthine (xanthine aptamer); higher = higher reporter protein expression
Conditions: HEK293T, ligand present: no
Please mark Met if the recorded FACS-Seq fitted mean (log10) is equal to or greater than 0.2, and Not met if it falls below.

>  <primary.sequence>
GCUGUCACCGGUGUAUUACCCUAGUGGUCGACCGGUCUGAUGAGUCUACCUGGAGACGAAACAGC [ACCUGG]

>  <label>
Met

$$$$
>  <primary.sequence>
GCUGUCACCGGUGUAUUACCCUAGUGGUCGACCGGUCUGAUGAGUCUGUUGAUAGACGAAACAGC [GUUGAU]

>  <label>
Met

$$$$
>  <primary.sequence>
GCUGUCACCGGUGUAUUACCCUAGUGGUCGACCGGUCUGAUGAGUCUGGCUCAAGACGAAACAGC [GGCUCA]

>  <label>
Met

$$$$
>  <primary.sequence>
GCUGUCACCGGUGUAUUACCCUAGUGGUCGACCGGUCUGAUGAGUCUAUCCAGAGACGAAACAGC [AUCCAG]

>  <label>
Met

$$$$
>  <primary.sequence>
GCUGUCACCGGUGUAUUACCCUAGUGGUCGACCGGUCUGAUGAGUCUAGCAGAAGACGAAACAGC [AGCAGA]

>  <label>
Met

$$$$
>  <primary.sequence>
GCUGUCACCGGUGUAUUACCCUAGUGGUCGACCGGUCUGAUGAGUCUAUUAAUAGACGAAACAGC [AUUAAU]

>  <label>
Met

$$$$
>  <primary.sequence>
GCUGUCACCGGUGUAUUACCCUAGUGGUCGACCGGUCUGAUGAGUCUGGGUGAAGACGAAACAGC [GGGUGA]

>  <label>
Not met

$$$$
>  <primary.sequence>
GCUGUCACCGGUGUAUUACCCUAGUGGUCGACCGGUCUGAUGAGUCUGACGACAGACGAAACAGC [GACGAC]

>  <label>
Not met

$$$$
>  <primary.sequence>
GCUGUCACCGGUGUAUUACCCUAGUGGUCGACCGGUCUGAUGAGUCUCUGCAGAGACGAAACAGC [CUGCAG]

>  <label>
Met

$$$$
>  <primary.sequence>
GCUGUCACCGGUGUAUUACCCUAGUGGUCGACCGGUCUGAUGAGUCUAGAAACAGACGAAACAGC [AGAAAC]

>  <label>
Met

$$$$
>  <primary.sequence>
GCUGUCACCGGUGUAUUACCCUAGUGGUCGACCGGUCUGAUGAGUCUAUACCCAGACGAAACAGC [AUACCC]

>  <label>
Met

$$$$
>  <primary.sequence>
GCUGUCACCGGUGUAUUACCCUAGUGGUCGACCGGUCUGAUGAGUCUGGUGAUAGACGAAACAGC [GGUGAU]

>  <label>
Met

$$$$
>  <primary.sequence>
GCUGUCACCGGUGUAUUACCCUAGUGGUCGACCGGUCUGAUGAGUCUAAAGGAAGACGAAACAGC [AAAGGA]

>  <label>
Not met

$$$$
>  <primary.sequence>
GCUGUCACCGGUGUAUUACCCUAGUGGUCGACCGGUCUGAUGAGUCUAGGGCGAGACGAAACAGC [AGGGCG]

>  <label>
Met

$$$$
>  <primary.sequence>
GCUGUCACCGGUGUAUUACCCUAGUGGUCGACCGGUCUGAUGAGUCUAGGGGGAGACGAAACAGC [AGGGGG]

>  <label>
Met

$$$$
>  <primary.sequence>
GCUGUCACCGGUGUAUUACCCUAGUGGUCGACCGGUCUGAUGAGUCUCUUUUAAGACGAAACAGC [CUUUUA]

>  <label>
Met

$$$$
>  <primary.sequence>
GCUGUCACCGGUGUAUUACCCUAGUGGUCGACCGGUCUGAUGAGUCUGCCCUUAGACGAAACAGC [GCCCUU]

>  <label>
Not met

$$$$
>  <primary.sequence>
GCUGUCACCGGUGUAUUACCCUAGUGGUCGACCGGUCUGAUGAGUCUUGGAAUAGACGAAACAGC [UGGAAU]

>  <label>
Not met

$$$$
>  <primary.sequence>
GCUGUCACCGGUGUAUUACCCUAGUGGUCGACCGGUCUGAUGAGUCUUGUCGUAGACGAAACAGC [UGUCGU]

>  <label>
Met

$$$$
>  <primary.sequence>
GCUGUCACCGGUGUAUUACCCUAGUGGUCGACCGGUCUGAUGAGUCUAUAUCGAGACGAAACAGC [AUAUCG]

>  <label>
Met

$$$$
>  <primary.sequence>
GCUGUCACCGGUGUAUUACCCUAGUGGUCGACCGGUCUGAUGAGUCUCCAUGGAGACGAAACAGC [CCAUGG]

>  <label>
Met

$$$$
>  <primary.sequence>
GCUGUCACCGGUGUAUUACCCUAGUGGUCGACCGGUCUGAUGAGUCUGGAAGGAGACGAAACAGC [GGAAGG]

>  <label>
Not met

$$$$
>  <primary.sequence>
GCUGUCACCGGUGUAUUACCCUAGUGGUCGACCGGUCUGAUGAGUCUAUGCGAAGACGAAACAGC [AUGCGA]

>  <label>
Not met

$$$$
>  <primary.sequence>
GCUGUCACCGGUGUAUUACCCUAGUGGUCGACCGGUCUGAUGAGUCUAGCACGAGACGAAACAGC [AGCACG]

>  <label>
Met

$$$$
>  <primary.sequence>
GCUGUCACCGGUGUAUUACCCUAGUGGUCGACCGGUCUGAUGAGUCUGCAAAUAGACGAAACAGC [GCAAAU]

>  <label>
Not met

$$$$
>  <primary.sequence>
GCUGUCACCGGUGUAUUACCCUAGUGGUCGACCGGUCUGAUGAGUCUGAACGGAGACGAAACAGC [GAACGG]

>  <label>
Not met

$$$$
>  <primary.sequence>
GCUGUCACCGGUGUAUUACCCUAGUGGUCGACCGGUCUGAUGAGUCUUUAUGGAGACGAAACAGC [UUAUGG]

>  <label>
Met

$$$$
>  <primary.sequence>
GCUGUCACCGGUGUAUUACCCUAGUGGUCGACCGGUCUGAUGAGUCUUAAGCGAGACGAAACAGC [UAAGCG]

>  <label>
Not met

$$$$
>  <primary.sequence>
GCUGUCACCGGUGUAUUACCCUAGUGGUCGACCGGUCUGAUGAGUCUGUAGCCAGACGAAACAGC [GUAGCC]

>  <label>
Met

$$$$
>  <primary.sequence>
GCUGUCACCGGUGUAUUACCCUAGUGGUCGACCGGUCUGAUGAGUCUGAACGCAGACGAAACAGC [GAACGC]

>  <label>
Met

$$$$
>  <primary.sequence>
GCUGUCACCGGUGUAUUACCCUAGUGGUCGACCGGUCUGAUGAGUCUCAACUUAGACGAAACAGC [CAACUU]

>  <label>
Met

$$$$
>  <primary.sequence>
GCUGUCACCGGUGUAUUACCCUAGUGGUCGACCGGUCUGAUGAGUCUCUGAGGAGACGAAACAGC [CUGAGG]

>  <label>
Met

$$$$
>  <primary.sequence>
GCUGUCACCGGUGUAUUACCCUAGUGGUCGACCGGUCUGAUGAGUCUAAUCACAGACGAAACAGC [AAUCAC]

>  <label>
Not met

$$$$
